Reference for the values: ChEMBL document CHEMBL1139935

- System: Pichia kudriavzevii
- MEASUREMENT DESCRIPTION: Antifungal activity against Candida krusei ATCC 6528 by broth microdilution assay
- Type: functional

>  <COMPOUND STRUCTURE STRING>
C[C@@H](n1ncc2cc(Cl)ccc21)[C@](O)(Cn1cncn1)c1ccc(F)cc1F

>  <TARGET>
Pichia kudriavzevii

>  <REPORTED RELATION>
=

>  <MIC80 [µg/mL]>
2

$$$$
>  <COMPOUND STRUCTURE STRING>
C[C@@H](n1cc2cc(F)ccc2n1)[C@](O)(Cn1cncn1)c1ccc(F)cc1F

>  <TARGET>
Pichia kudriavzevii

>  <REPORTED RELATION>
=

>  <MIC80 [µg/mL]>
0.5

$$$$
>  <COMPOUND STRUCTURE STRING>
C[C@@H](n1ncc2c([N+](=O)[O-])cccc21)[C@](O)(Cn1cncn1)c1ccc(F)cc1F

>  <TARGET>
Pichia kudriavzevii

>  <REPORTED RELATION>
=

>  <MIC80 [µg/mL]>
1

$$$$
>  <COMPOUND STRUCTURE STRING>
C[C@@H](n1cc2c([N+](=O)[O-])cccc2n1)[C@](O)(Cn1cncn1)c1ccc(F)cc1F

>  <TARGET>
Pichia kudriavzevii

>  <REPORTED RELATION>
=

>  <MIC80 [µg/mL]>
4

$$$$
>  <COMPOUND STRUCTURE STRING>
Cc1nn([C@H](C)[C@](O)(Cn2cncn2)c2ccc(F)cc2F)c2cccc(F)c12

>  <TARGET>
Pichia kudriavzevii

>  <REPORTED RELATION>
=

>  <MIC80 [µg/mL]>
1

$$$$
>  <COMPOUND STRUCTURE STRING>
CCc1nn([C@H](C)[C@](O)(Cn2cncn2)c2ccc(F)cc2F)c2ccc(F)cc12

>  <TARGET>
Pichia kudriavzevii

>  <REPORTED RELATION>
=

>  <MIC80 [µg/mL]>
2

$$$$
>  <COMPOUND STRUCTURE STRING>
C[C@@H](n1ncc2cc(F)ccc21)[C@](O)(Cn1cncn1)c1ccc(F)cc1F

>  <TARGET>
Pichia kudriavzevii

>  <REPORTED RELATION>
=

>  <MIC80 [µg/mL]>
1

$$$$
>  <COMPOUND STRUCTURE STRING>
Cc1nn([C@H](C)[C@](O)(Cn2cncn2)c2ccc(F)cc2F)c2cc(F)ccc12

>  <TARGET>
Pichia kudriavzevii

>  <REPORTED RELATION>
=

>  <MIC80 [µg/mL]>
8

$$$$
>  <COMPOUND STRUCTURE STRING>
C[C@@H](n1ncc2cc(N)ccc21)[C@](O)(Cn1cncn1)c1ccc(F)cc1F

>  <TARGET>
Pichia kudriavzevii

>  <REPORTED RELATION>
=

>  <MIC80 [µg/mL]>
8

$$$$
>  <COMPOUND STRUCTURE STRING>
OC(Cn1cncn1)(Cn1cncn1)c1ccc(F)cc1F

>  <TARGET>
Pichia kudriavzevii

>  <REPORTED RELATION>
>

>  <MIC80 [µg/mL]>
8

$$$$
>  <COMPOUND STRUCTURE STRING>
C[C@@H](n1cnc2cc(Cl)ccc2c1=O)[C@](O)(Cn1cncn1)c1ccc(F)cc1F

>  <TARGET>
Pichia kudriavzevii

>  <REPORTED RELATION>
=

>  <MIC80 [µg/mL]>
0.25

$$$$
>  <COMPOUND STRUCTURE STRING>
C[C@@H](n1ncc2cc(Br)ccc21)[C@](O)(Cn1cncn1)c1ccc(F)cc1F

>  <TARGET>
Pichia kudriavzevii

>  <REPORTED RELATION>
=

>  <MIC80 [µg/mL]>
2

$$$$
>  <COMPOUND STRUCTURE STRING>
C[C@@H](n1ncc2cc(N(C)C)ccc21)[C@](O)(Cn1cncn1)c1ccc(F)cc1F

>  <TARGET>
Pichia kudriavzevii

>  <REPORTED RELATION>
=

>  <MIC80 [µg/mL]>
1

$$$$

----------
- System: Pichia kudriavzevii
- MEASUREMENT DESCRIPTION: Antifungal activity against Candida krusei ATCC 6528 by broth microdilution assay
- Assay type: functional

>  <COMPOUND STRUCTURE STRING>
Cc1nn([C@H](C)[C@](O)(Cn2cncn2)c2ccc(F)cc2F)c2ccc(F)cc12

>  <UNITS>
µg/mL

>  <REPORTED RELATION>
=

>  <MIC80>
4

$$$$
>  <COMPOUND STRUCTURE STRING>
C[C@@H](n1cc2cc(Cl)ccc2n1)[C@](O)(Cn1cncn1)c1ccc(F)cc1F

>  <UNITS>
µg/mL

>  <REPORTED RELATION>
=

>  <MIC80>
0.125

$$$$
>  <COMPOUND STRUCTURE STRING>
C[C@@H](c1ncncc1F)[C@](O)(Cn1cncn1)c1ccc(F)cc1F

>  <UNITS>
µg/mL

>  <REPORTED RELATION>
=

>  <MIC80>
1

$$$$
>  <COMPOUND STRUCTURE STRING>
C[C@@H](n1ncc2ccccc21)[C@](O)(Cn1cncn1)c1ccc(F)cc1F

>  <UNITS>
µg/mL

>  <REPORTED RELATION>
=

>  <MIC80>
0.5

$$$$
>  <COMPOUND STRUCTURE STRING>
C[C@@H](n1cc2cc(Br)ccc2n1)[C@](O)(Cn1cncn1)c1ccc(F)cc1F

>  <UNITS>
µg/mL

>  <REPORTED RELATION>
=

>  <MIC80>
0.125

$$$$
>  <COMPOUND STRUCTURE STRING>
C[C@@H](n1ncc2cccc([N+](=O)[O-])c21)[C@](O)(Cn1cncn1)c1ccc(F)cc1F

>  <UNITS>
µg/mL

>  <REPORTED RELATION>
=

>  <MIC80>
0.5

$$$$
>  <COMPOUND STRUCTURE STRING>
C[C@@H](c1nc(-c2ccc(C#N)cc2)cs1)[C@](O)(Cn1cncn1)c1ccc(F)cc1F

>  <UNITS>
µg/mL

>  <REPORTED RELATION>
=

>  <MIC80>
0.125

$$$$
>  <COMPOUND STRUCTURE STRING>
Cc1nn([C@H](C)[C@](O)(Cn2cncn2)c2ccc(F)cc2F)c2ccc(Cl)cc12

>  <UNITS>
µg/mL

>  <REPORTED RELATION>
=

>  <MIC80>
2

$$$$
>  <COMPOUND STRUCTURE STRING>
C[C@@H](n1cc2ccc([N+](=O)[O-])cc2n1)[C@](O)(Cn1cncn1)c1ccc(F)cc1F

>  <UNITS>
µg/mL

>  <REPORTED RELATION>
>

>  <MIC80>
8

$$$$

----------
- Test system: Pichia kudriavzevii
- MEASUREMENT DESCRIPTION: Antifungal activity against Candida krusei ATCC 6528 by broth microdilution assay
- Format: functional
OBSERVATION TYPE: MIC80 (µg/mL)

>  <COMPOUND STRUCTURE STRING>
C[C@@H](n1ncc2ccc([N+](=O)[O-])cc21)[C@](O)(Cn1cncn1)c1ccc(F)cc1F

>  <TARGET>
Pichia kudriavzevii

>  <OBSERVATION TYPE>
MIC80

>  <OBSERVED VALUE>
0.5

$$$$
>  <COMPOUND STRUCTURE STRING>
Cc1nn([C@H](C)[C@](O)(Cn2cncn2)c2ccc(F)cc2F)c2ccc(C(F)(F)F)cc12

>  <TARGET>
Pichia kudriavzevii

>  <OBSERVATION TYPE>
MIC80

>  <OBSERVED VALUE>
4

$$$$
>  <COMPOUND STRUCTURE STRING>
Cc1nn([C@H](C)[C@](O)(Cn2cncn2)c2ccc(F)cc2F)c2ccc([N+](=O)[O-])cc12

>  <TARGET>
Pichia kudriavzevii

>  <OBSERVATION TYPE>
MIC80

>  <OBSERVED VALUE>
4

$$$$
>  <COMPOUND STRUCTURE STRING>
C[C@@H](n1ncc2cc([N+](=O)[O-])ccc21)[C@](O)(Cn1cncn1)c1ccc(F)cc1F

>  <TARGET>
Pichia kudriavzevii

>  <OBSERVATION TYPE>
MIC80

>  <OBSERVED VALUE>
0.25

$$$$
